measurement target: USP25 (Homo sapiens (Human), UniProt Q9UHP3)
Sequence (Q9UHP3 whole entry): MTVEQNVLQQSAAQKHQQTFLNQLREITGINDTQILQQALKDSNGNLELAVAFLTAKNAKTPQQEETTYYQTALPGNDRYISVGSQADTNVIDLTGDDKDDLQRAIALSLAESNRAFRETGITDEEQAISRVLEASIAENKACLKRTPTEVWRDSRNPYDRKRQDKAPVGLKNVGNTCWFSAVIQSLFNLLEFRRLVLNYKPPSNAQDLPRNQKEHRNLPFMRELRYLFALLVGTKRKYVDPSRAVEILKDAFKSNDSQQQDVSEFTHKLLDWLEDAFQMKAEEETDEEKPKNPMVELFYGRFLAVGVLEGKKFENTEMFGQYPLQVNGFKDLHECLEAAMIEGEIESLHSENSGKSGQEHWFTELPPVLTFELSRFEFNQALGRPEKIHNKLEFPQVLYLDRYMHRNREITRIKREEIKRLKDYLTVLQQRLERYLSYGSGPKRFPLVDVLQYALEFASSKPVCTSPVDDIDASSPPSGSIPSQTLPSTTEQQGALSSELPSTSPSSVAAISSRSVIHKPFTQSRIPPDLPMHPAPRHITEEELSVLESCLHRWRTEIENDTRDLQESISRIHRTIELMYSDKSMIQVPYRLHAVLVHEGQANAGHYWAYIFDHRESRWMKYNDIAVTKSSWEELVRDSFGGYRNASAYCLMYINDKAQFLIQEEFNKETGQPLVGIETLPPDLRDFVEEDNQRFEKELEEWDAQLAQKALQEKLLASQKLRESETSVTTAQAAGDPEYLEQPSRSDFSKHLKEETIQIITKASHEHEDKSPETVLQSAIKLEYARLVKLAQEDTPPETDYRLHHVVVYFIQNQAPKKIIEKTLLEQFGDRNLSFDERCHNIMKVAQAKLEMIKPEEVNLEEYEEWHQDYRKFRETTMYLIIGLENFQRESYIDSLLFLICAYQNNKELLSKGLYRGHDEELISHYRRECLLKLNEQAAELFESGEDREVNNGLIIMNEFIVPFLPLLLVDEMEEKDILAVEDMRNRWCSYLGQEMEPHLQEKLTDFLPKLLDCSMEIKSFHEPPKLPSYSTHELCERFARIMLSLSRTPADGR
pIC50: −log10 of the molar value.
readout name: pIC50

Item: Cc1cnc2c(N)c(C(=O)NCCc3cc(F)c(N4CC5CNCC(C4)O5)cc3F)sc2n1 Test system: USP25 (Homo sapiens (Human), UniProt Q9UHP3) Read-out: pIC50 Value: ? > 6.70

* * *

measurement target: USP28 (Homo sapiens (Human), UniProt Q96RU2)
Sequence (Q96RU2 whole entry): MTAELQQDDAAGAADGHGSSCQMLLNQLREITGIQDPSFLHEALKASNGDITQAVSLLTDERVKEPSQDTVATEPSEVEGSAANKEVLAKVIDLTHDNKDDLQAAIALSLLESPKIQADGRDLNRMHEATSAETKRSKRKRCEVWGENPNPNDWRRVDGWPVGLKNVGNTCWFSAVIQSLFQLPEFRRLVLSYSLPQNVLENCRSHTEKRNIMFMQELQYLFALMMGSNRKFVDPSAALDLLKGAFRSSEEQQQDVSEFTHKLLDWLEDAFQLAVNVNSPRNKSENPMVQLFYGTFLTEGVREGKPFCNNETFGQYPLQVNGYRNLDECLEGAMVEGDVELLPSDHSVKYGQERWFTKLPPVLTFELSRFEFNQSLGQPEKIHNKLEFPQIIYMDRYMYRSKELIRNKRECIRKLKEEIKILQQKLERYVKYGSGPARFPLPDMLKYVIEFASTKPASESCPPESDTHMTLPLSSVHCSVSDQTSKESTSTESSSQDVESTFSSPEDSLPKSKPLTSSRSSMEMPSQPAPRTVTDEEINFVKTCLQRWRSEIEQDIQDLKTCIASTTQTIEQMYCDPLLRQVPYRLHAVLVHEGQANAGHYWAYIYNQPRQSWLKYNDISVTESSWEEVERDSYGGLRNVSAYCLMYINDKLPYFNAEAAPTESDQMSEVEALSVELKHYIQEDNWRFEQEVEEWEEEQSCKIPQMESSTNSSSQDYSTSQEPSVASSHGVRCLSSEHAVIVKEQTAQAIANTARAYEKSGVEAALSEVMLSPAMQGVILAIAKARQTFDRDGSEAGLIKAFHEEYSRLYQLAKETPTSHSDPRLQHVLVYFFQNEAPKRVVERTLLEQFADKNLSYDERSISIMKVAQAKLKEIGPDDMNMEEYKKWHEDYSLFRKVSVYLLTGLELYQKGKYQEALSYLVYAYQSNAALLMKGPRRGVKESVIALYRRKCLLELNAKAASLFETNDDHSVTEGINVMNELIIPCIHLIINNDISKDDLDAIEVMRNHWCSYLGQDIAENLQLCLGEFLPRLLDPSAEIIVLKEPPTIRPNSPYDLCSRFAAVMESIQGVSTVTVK
method description: Ubiquitin-Rhodamine 110 Assay for USP28 Activity
Type: biochemical
condition notes: Ub-Rh110 substrate 25 nM
readout name: IC50

Consider the molecule shown here: Cc1cnc2c(N)c(C(=O)NCCc3cc(F)c(N4CC5CNCC(C4)O5)cc3F)sc2n1 What is its recorded IC50? < 200 nM
